Biological target: glucagon receptor (GCGR) (human, UniProt P47871 26-477)
Sequence (P47871 26-477): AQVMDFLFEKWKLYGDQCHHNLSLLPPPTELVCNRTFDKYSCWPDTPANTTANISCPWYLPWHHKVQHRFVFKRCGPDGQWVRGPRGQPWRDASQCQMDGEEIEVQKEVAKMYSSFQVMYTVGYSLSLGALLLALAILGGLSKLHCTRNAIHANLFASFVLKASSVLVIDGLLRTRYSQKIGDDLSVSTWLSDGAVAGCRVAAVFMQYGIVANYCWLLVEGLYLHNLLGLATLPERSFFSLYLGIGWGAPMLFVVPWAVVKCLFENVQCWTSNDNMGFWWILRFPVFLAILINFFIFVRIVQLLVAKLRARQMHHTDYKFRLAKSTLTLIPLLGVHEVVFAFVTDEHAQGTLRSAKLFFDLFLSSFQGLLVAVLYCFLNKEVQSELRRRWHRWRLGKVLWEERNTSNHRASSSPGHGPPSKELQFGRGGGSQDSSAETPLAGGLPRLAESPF
Test: cell-based or functional assay
Non-standard residues stand in square brackets, D forms with d. Groups on a side chain read outwards from the residue. Primed or numbered codes have the meaning given here. No end group written: not given here. *: point of attachment. Dodecylbenzoate = dodecylbenzoyl lipid group; Stearoyl = CCCCCCCCCCCCCCCCCC(=O)*; αMeF = C[C@](N)(Cc1ccccc1)C(=O)O; αMeK = C[C@](N)(CCCCN)C(=O)O; αMeS = C[C@](N)(CO)C(=O)O; PEG2′ = not defined here; Aib = CC(C)(N)C(=O)O; Ahx = NCCCCCC(=O)O
measuredQuantity: Primary assay EC50 (cAMP), Gluc-R, first run (nM)

binder	measValue
H[Aib]EGS[αMeF]TSDV[αMeS]S[αMeF]LEGEAA[αMeK]E[αMeF]IA[αMeF]VVK([PEG2′-PEG2′-PEG2′-Stearoyl])GG-NH2 [SEQ ID NO 199]	25
H[Aib]EGS[αMeF]TSDV[αMeS]S[αMeF]LEGEAA[αMeK]E[αMeF]IA[αMeF]VVK([Ahx-Dodecylbenzoate])GG-NH2 [SEQ ID NO 176]	27
H[Aib]EGS[αMeF]TSDV[αMeS]S[αMeF]LEGEAA[αMeK]E[αMeF]IA[αMeF]VVK([PEG2′-Dodecylbenzoate])GG-NH2 [SEQ ID NO 179]	27
H[Aib]EGS[αMeF]TSDV[αMeS]S[αMeF]LEGEAA[αMeK]E[αMeF]IA[αMeF]VVK([PEG2′-Stearoyl])GG-NH2 [SEQ ID NO 188]	28
H[Aib]EGS[αMeF]TSDV[αMeS]S[αMeF]LEGEAA[αMeK]E[αMeF]IA[αMeF]VVK([PEG2′-PEG2′-PEG2′-Dodecylbenzoate])GG-NH2 [SEQ ID NO 181]	25
